System: UO-31 renal
Experiment: NCI-60 one-dose screen, 48 h
Settings: 10 µM unless noted
Compounds without any hit were thinned out: in the full panel of roughly 83,000, 20% have a hit. Calls of active or inactive are those of the source. Rule for the calls: active = growth percent below 10; inactive = the rest.
Labels: T (active), F (inactive)

[
  {
    "molecule": "CC(=O)OC1CCC2(C)C(CCC3C4CC=C(C(C)=O)C4(C)OC(=O)CC32)C1 (stereo unspecified)",
    "label": "F"
  },
  {
    "molecule": "CC1(C)CN(c2cnc(C(=O)Nc3cc(F)cc4cccnc34)cn2)CCN1",
    "label": "F"
  },
  {
    "molecule": "Nc1c(C(=O)Nc2cccc3ccncc23)sc2nc3c(cc12)C(=O)CCC3",
    "label": "F"
  },
  {
    "molecule": "CC[N+](CC)(CCCC(C)[N+]1(Cc2ccccc2)C(C)=CC=C1C)Cc1ccccc1 (stereo unspecified)",
    "label": "F"
  },
  {
    "molecule": "Clc1ccc(C2CC(c3cccc(Nc4ccncc4)c3)=NN2c2ccc(Cl)cc2)cc1 (stereo unspecified)",
    "label": "T"
  },
  {
    "molecule": "FC(F)(F)Oc1cccc(-c2cc(NCCCCCCNc3cc(-c4cccc(OC(F)(F)F)c4)nc4ccc(N5CCCC5)cc34)c3cc(N4CCCC4)ccc3n2)c1",
    "label": "F"
  },
  {
    "molecule": "O=c1[nH]c(=O)[nH]c(=S)[nH]1",
    "label": "F"
  },
  {
    "molecule": "COc1ccc(Cn2nc(-c3cc(OC)c(OC)c(OC)c3)c3c2CCc2cnoc2-3)cc1OC",
    "label": "F"
  },
  {
    "molecule": "CC(C)Sc1nc(NN)c(C#N)c(-c2ccccc2)n1",
    "label": "F"
  },
  {
    "molecule": "CN1C(=O)N(C)[C@H]2NC(NN)=N[C@H]21",
    "label": "F"
  },
  {
    "molecule": "Fc1cc(C2=NNC(c3ccc[nH]3)C2)ccc1-n1ccc(C(F)(F)F)n1 (stereo unspecified)",
    "label": "F"
  },
  {
    "molecule": "CN1CCCC1=Nc1ccccc1",
    "label": "F"
  },
  {
    "molecule": "COc1ccc(-c2nc(N/N=C/c3cccc(Br)c3)nc(N3CCOCC3)c2C#N)cc1",
    "label": "F"
  },
  {
    "molecule": "COc1ccc(-c2nc(SC(C)C)nc(NNC(N)=O)c2C#N)cc1",
    "label": "F"
  },
  {
    "molecule": "O=C(CSc1nc2sc3c(c2c(=O)n1Cc1ccccc1)CCCC3)N1CCN(c2ccccc2)CC1",
    "label": "F"
  },
  {
    "molecule": "Brc1ccc(C2CC(c3cccc(Nc4ccncc4)c3)=NN2c2ccccc2)cc1 (stereo unspecified)",
    "label": "F"
  },
  {
    "molecule": "COc1ccc(C(=O)c2cc3c(N)c(C(=O)Nc4cccc(Cl)c4)sc3nc2C)cc1",
    "label": "F"
  },
  {
    "molecule": "CCCCCCCC(=O)Nc1nc2[nH]c(CN3CCN(Cc4cccc(I)c4)CC3)c(CN3CCN(Cc4cccc(I)c4)CC3)c2c(=O)[nH]1",
    "label": "T"
  },
  {
    "molecule": "COc1ccc(-c2nn(Cc3ccccc3)c3c2-c2oncc2CC3)cc1OC",
    "label": "F"
  },
  {
    "molecule": "c1cnc2nc3c(cc2c1)oc1ccccc13",
    "label": "F"
  },
  {
    "molecule": "CCN1C(=O)N(CC)C2NC(SC)=NC21 (stereo unspecified)",
    "label": "F"
  }
]

* * *

Tested on: SF-295 CNS
Experiment: NCI-60 one-dose screen, 48 h
Settings: 10 µM unless noted
Compounds without any hit were thinned out: in the full panel of roughly 83,000, 20% have a hit. Active and inactive are the calls of the source. Rule for the calls: active = growth percent below 10; inactive = the rest.
Outcome codes: active, inactive

[
  {
    "molecule": "CCOc1ccc(/C=N/Nc2cc(C)nc3ccc(Cl)cc23)cc1",
    "systemTested": "SF-295 CNS",
    "label": "active"
  },
  {
    "molecule": "O=c1[nH]nc(-c2ccc(Cl)cc2)cc1Cc1cccc([N+](=O)[O-])c1",
    "systemTested": "SF-295 CNS",
    "label": "inactive"
  },
  {
    "molecule": "COc1ccc(/C=C/C(=O)c2ccc(Nc3ncnc4ccccc34)cc2)cc1OC",
    "systemTested": "SF-295 CNS",
    "label": "inactive"
  },
  {
    "molecule": "CCCCCCCCOC(=O)c1ccc(O)c(OC)c1",
    "systemTested": "SF-295 CNS",
    "label": "inactive"
  },
  {
    "molecule": "C=C(C)[C@@H]1CC[C@]2(C(=O)NCCCN(CCC#N)CCC#N)CC[C@]3(C)[C@H](CC[C@@H]4[C@@]5(C)CCC(=O)C(C)(C)[C@@H]5CC[C@]43C)[C@@H]12",
    "systemTested": "SF-295 CNS",
    "label": "inactive"
  },
  {
    "molecule": "Cn1c(COC(=O)N2CCCCC2)nc2c(N3CCOCC3)nc(-c3ccccc3)nc21",
    "systemTested": "SF-295 CNS",
    "label": "inactive"
  },
  {
    "molecule": "CCNNC(=O)[C@@H]1[C@H](c2cc(OC)c(OC)c(OC)c2)c2cc3c(cc2[C@H](O)[C@H]1CO)OCO3",
    "systemTested": "SF-295 CNS",
    "label": "active"
  },
  {
    "molecule": "CCOC(=O)c1cnc2c(cnn2CC)c1NN=C(C)C",
    "systemTested": "SF-295 CNS",
    "label": "inactive"
  },
  {
    "molecule": "CC(C)CCSc1nc(NNC(N)=O)c(C#N)c(-c2ccccc2)n1",
    "systemTested": "SF-295 CNS",
    "label": "inactive"
  },
  {
    "molecule": "Fc1ccc(-n2cc(COc3ncnc4sc5c(c34)CCCC5)nn2)cc1Cl",
    "systemTested": "SF-295 CNS",
    "label": "inactive"
  },
  {
    "molecule": "COc1ccc(-c2ncc(-c3ccccc3)[nH]2)cc1OC",
    "systemTested": "SF-295 CNS",
    "label": "inactive"
  },
  {
    "molecule": "COc1ccccc1N1CCN(C(=O)c2ccc3nc(NC(=O)c4ccc(NCCc5ccccc5)c([N+](=O)[O-])c4)sc3c2)CC1",
    "systemTested": "SF-295 CNS",
    "label": "inactive"
  },
  {
    "molecule": "COc1ccccc1C(C[N+](=O)[O-])c1c(-c2ccccc2)[nH]c2cc(C)ccc12 (stereo not given)",
    "systemTested": "SF-295 CNS",
    "label": "inactive"
  },
  {
    "molecule": "CCNC(=O)c1[nH]cc(-c2ccc(OC)cc2)c1-c1cc(OC)cc(OC)c1",
    "systemTested": "SF-295 CNS",
    "label": "inactive"
  },
  {
    "molecule": "COc1ccc(-c2cnnc3c(-c4cccc(C(F)(F)F)c4)cnn23)cc1",
    "systemTested": "SF-295 CNS",
    "label": "active"
  },
  {
    "molecule": "COc1cccc2c1C(=O)c1c(O)c3c(c(O)c1C2=O)C[C@@](O)(C(=O)CO)C[C@@H]3O[C@H]1C[C@H](N)[C@@H](O)[C@H](C)O1",
    "systemTested": "SF-295 CNS",
    "label": "active"
  },
  {
    "molecule": "CCSc1ccc2c(c1)N(CCCN1CCN(C)CC1)c1ccccc1S2",
    "systemTested": "SF-295 CNS",
    "label": "inactive"
  },
  {
    "molecule": "COc1ccncc1C#Cc1cncc(C(=O)Nc2ccc(CN3CCN(C)CC3)c(C(F)(F)F)c2)c1",
    "systemTested": "SF-295 CNS",
    "label": "inactive"
  },
  {
    "molecule": "CCc1c(Nc2ccc(C)cc2)nc(N)[nH]c1=O",
    "systemTested": "SF-295 CNS",
    "label": "inactive"
  },
  {
    "molecule": "Cc1cc(C)c(C=O)c(C)c1",
    "systemTested": "SF-295 CNS",
    "label": "inactive"
  }
]

* * *

System: SK-MEL-28 melanoma
Assay: NCI-60 one-dose screen, 48 h
Conditions: 10 µM unless noted
Procedure: Growth inhibition of the SK-MEL-28 human tumor cell line is measured as a screen for anti-cancer activity. Cells are grown in 96 well plates and exposed to the test compound for 48 hours. Compounds are tested at a single concentration, which is 10^-5 M for most compounds. The reported endpoint is percent growth (GI% or GIPRCNT), where numbers from 0 - 100% represent growth inhibition, and numbers from -100% - 0 represent cell death. For example, a value of 40 represents 60% growth inhibition. […]
Compounds without any hit were thinned out: in the full panel of roughly 83,000, 20% have a hit. The source made the active and inactive calls. The calls were made as follows: active = growth percent below 10; inactive = the rest.
Classes used: active, inactive

[
  {
    "compound": "COc1c(Cl)cc(Cl)c2ccc(C=C3C(=O)NC(=S)NC3=O)nc12",
    "label": "inactive"
  },
  {
    "compound": "COc1ccc(C(=O)c2cc(C)c(OC)c(C)c2)c(OC)c1N(C(=O)C(Cl)Cl)C(=O)C(Cl)Cl",
    "label": "inactive"
  },
  {
    "compound": "COc1ccc(-c2nc(N/N=C/c3cccc(Br)c3)nc(N3CCOCC3)c2C#N)cc1",
    "label": "active"
  },
  {
    "compound": "COc1ccc(C(O)c2cc3c(N)c(C(=O)Nc4cccc(OC)c4)sc3nc2C)cc1 (stereo not drawn)",
    "label": "inactive"
  },
  {
    "compound": "CC(C)(C)OC(=O)N1C/C(=C\\c2ccoc2)C(=O)/C(=C/c2ccoc2)C1",
    "label": "inactive"
  },
  {
    "compound": "CC[C@H](C)[C@@H]1NC(=O)[C@H](Cc2ccc(O)cc2)N(C)C(=O)[C@H](Cc2ccccc2)NC(=O)CN(C)C(=O)[C@@H]2CCCN2C(=O)[C@@H](Cc2ccccc2)N(C)C(=O)[C@H](CC(C)C)NC1=O",
    "label": "active"
  },
  {
    "compound": "CCC1(CC)NC(=O)c2c(c3ccc(Cl)c(Cl)c3n2C)C1C#N (stereo not drawn)",
    "label": "inactive"
  },
  {
    "compound": "N#Cc1cc(-c2nc3ccccc3s2)c(=O)n(NS(=O)(=O)c2ccc(Cl)cc2)c1N",
    "label": "inactive"
  }
]
